Attribution: DBAASP

The compounds below have reported MIC for Shigella dysenteriae.

Worked examples follow.
| RECORD SMILES | TARGET OR TEST SYSTEM | EXPERIMENTAL RESULT |
| --- | --- | --- |
| CC(C)C[C@H](NC(=O)[C@H](C)NC(=O)CNC(=O)[C@H](CC(C)C)NC(=O)[C@@H](N)Cc1c[nH]c2ccccc12)C(=O)N[C@@H](Cc1ccccc1)C(=O)N[C@@H](CCCCN)C(=O)N[C@H](C(=O)N[C@@H](C)C(=O)N[C@@H](CO)C(=O)N[C@@H](CCCCN)C(=O)O)C(C)C | Shigella dysenteriae | ≥ 164 µM |
| CC(C)C[C@H](NC(=O)[C@@H](N)Cc1ccccc1)C(=O)NCC(=O)N[C@@H](C)C(=O)N[C@@H](Cc1c[nH]c2ccccc12)C(=O)N[C@@H](Cc1ccccc1)C(=O)N[C@@H](CCCCN)C(=O)N[C@H](C(=O)N[C@@H](C)C(=O)N[C@@H](CO)C(=O)N[C@@H](CCCCN)C(=O)O)C(C)C | Shigella dysenteriae | ≥ 160 µM |

Turning to the following compound.
Inquiry: Could you share what MIC was measured for CC(C)C[C@H](NC(=O)[C@H](C)NC(=O)CNC(=O)[C@H](CC(C)C)NC(=O)[C@@H](N)Cc1ccccc1)C(=O)N[C@@H](Cc1ccccc1)C(=O)N[C@@H](Cc1c[nH]c2ccccc12)C(=O)N[C@H](C(=O)N[C@@H](C)C(=O)N[C@@H](CO)C(=O)N[C@@H](CCCCN)C(=O)O)C(C)C , tested on Shigella dysenteriae?
Reply text: ≥ 161 µM
